- experiment-notes: Plasma clearance in rat at 2 mg/kg, po and 1 mg/kg iv
- Type: ADME, organism-based
property-label: clearance (mL/min/kg)
Numbers only, in mL/min/kg.

Inquiry: Query clearance for "Cc1ccc(NC(=O)C(C)C)cc1C1CCN(Cc2ccc(Oc3ccc(F)c(F)c3)cc2)CC1"
Reply text: 70

====

- system-tested: Melanin-concentrating hormone receptor 1 (Rattus norvegicus, UniProt P97639)
- Sequence (P97639 whole entry): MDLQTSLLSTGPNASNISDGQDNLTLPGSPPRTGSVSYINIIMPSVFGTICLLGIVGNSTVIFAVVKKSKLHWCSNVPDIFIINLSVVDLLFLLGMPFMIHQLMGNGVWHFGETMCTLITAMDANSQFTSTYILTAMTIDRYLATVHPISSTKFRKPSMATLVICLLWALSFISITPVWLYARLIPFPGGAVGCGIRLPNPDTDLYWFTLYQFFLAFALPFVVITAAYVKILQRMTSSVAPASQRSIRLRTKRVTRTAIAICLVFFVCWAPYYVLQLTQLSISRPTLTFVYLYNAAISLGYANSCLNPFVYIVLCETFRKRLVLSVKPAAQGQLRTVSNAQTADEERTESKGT
- experiment-notes: Displacement of [3H]T-226296 from rat recombinant MCH1 receptor
property-label: Ki (nM)
Numbers only, in nM.

Observe how each entry below is paired with its result.
CC(C)C(=O)Nc1cccc(C2CCN(Cc3cccc(Oc4cc(Cl)cc(Cl)c4)c3)CC2)c1	140
CC(C)C(=O)Nc1cccc(C2CCN(Cc3ccc(Oc4ccc(Cl)cc4)cc3)CC2)c1	5.3
CC(=O)Nc1cccc(C2CCN(CCCC(=O)c3ccccc3)CC2)c1	350
CC(=O)Nc1cccc(C2CCN(CCCC(=O)c3ccc(Cl)cc3)CC2)c1	70
CC(C)C(=O)Nc1cccc(C2CCN(Cc3cccc(Oc4ccc(Cl)c(Cl)c4)c3)CC2)c1	18

Please give Ki, item by item, for the list that follows.
1. CC(C)C(=O)Nc1cccc(C2CCN(Cc3ccc(Oc4ccccc4)cc3)CC2)c1
2. O=C(CCCN1CCC(O)(c2ccc(Cl)cc2)CC1)c1ccc(Cl)cc1 [CHLOROHALOPERIDOL]

Reply text:
1. 10
2. 350

Please give Ki, item by item, for the list that follows.
1. CC(C)C(=O)Nc1cccc(C2CCN(Cc3ccc(Oc4ccc(Cl)c(Cl)c4)cc3)CC2)c1
2. CC(=O)Nc1cccc(C2CCN(CCCC(=O)c3ccc(C)c(C)c3)CC2)c1

Reply text:
1: 8.2; 2: 100

====

- experiment-notes: Blood clearance in rat at 2 mg/kg, po and 1 mg/kg iv
- Type: ADME, organism-based
- measurement-conditions: whole blood
property-label: clearance (mL/min/kg)
One number for each entry, in mL/min/kg.

Inquiry: Query clearance for "Cc1ccc(NC(=O)C(C)C)cc1C1CCN(Cc2ccc(Oc3ccc(F)c(F)c3)cc2)CC1"
Reply text: 55

====

- system-tested: Melanin-concentrating hormone receptor 1 (Rattus norvegicus)
- experiment-notes: Displacement of [3H]T-226296 from rat recombinant MCH1 receptor
property-label: Ki (nM)
Numbers only, in nM.

CC(C)C(=O)Nc1cccc(C2CCN(Cc3cccc(Oc4ccc(Cl)cc4)c3)CC2)c1	23

Please give Ki, item by item, for the list that follows.
1. CC(C)C(=O)Nc1cccc(C2CCN(CCCC(=O)c3ccc(Cl)cc3)CC2)c1
2. Cc1ccc(C2CCN(Cc3ccc(Oc4ccc(F)c(F)c4)cc3)CC2)cc1NC(=O)C(C)C
3. CC(C)C(=O)Nc1cccc(C2CCN(Cc3cccc(Oc4ccc(C(C)(C)C)cc4)c3)CC2)c1
4. O=C(CCCN1CCC(c2cccc(NC(=O)C3CCCCC3)c2)CC1)c1ccc(Cl)cc1
5. CC(=O)Nc1cccc(C2CCN(CCCC(=O)c3ccc(Oc4ccccc4)cc3)CC2)c1

Reply text:
[5, 27, 540, 200, 490]

====

- system-tested: D(2) dopamine receptor (Homo sapiens, UniProt P14416)
- Sequence (P14416 whole entry): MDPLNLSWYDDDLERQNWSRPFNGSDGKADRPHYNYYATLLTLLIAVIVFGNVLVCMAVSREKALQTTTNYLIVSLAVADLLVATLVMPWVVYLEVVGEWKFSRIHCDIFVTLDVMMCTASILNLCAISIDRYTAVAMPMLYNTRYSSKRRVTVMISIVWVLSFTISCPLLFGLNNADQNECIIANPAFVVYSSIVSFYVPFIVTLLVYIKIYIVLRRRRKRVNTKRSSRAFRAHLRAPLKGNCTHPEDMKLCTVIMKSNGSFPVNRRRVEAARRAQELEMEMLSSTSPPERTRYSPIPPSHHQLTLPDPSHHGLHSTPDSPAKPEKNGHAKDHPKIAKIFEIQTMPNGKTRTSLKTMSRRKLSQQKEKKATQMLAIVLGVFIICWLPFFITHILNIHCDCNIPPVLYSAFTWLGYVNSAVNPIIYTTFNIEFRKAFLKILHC
- experiment-notes: Displacement of [3H]spiperone from human recombinant dopamine D2 receptor
property-label: pKi
Answers are plain numbers, as −log10 of the molar value.

Please give pKi, item by item, for the list that follows.
1. CC(C)C(=O)Nc1cccc(C2CCN(Cc3ccc(Oc4ccc(F)c(F)c4)cc3)CC2)c1
2. CC(C)C(=O)Nc1cccc(C2CCN(Cc3ccc(Oc4ccc(Cl)c(Cl)c4)cc3)CC2)c1
3. COc1ccc(Oc2cccc(CN3CCC(c4cccc(NC(=O)C(C)C)c4)CC3)c2)cc1

Reply text:
[6.33, 5.54, 6.00]

====

So I've got a bunch of molecules here, and I need their Ki values.
- system-tested: Alpha-1A adrenergic receptor (Homo sapiens, UniProt P35348)
- Sequence (P35348 whole entry): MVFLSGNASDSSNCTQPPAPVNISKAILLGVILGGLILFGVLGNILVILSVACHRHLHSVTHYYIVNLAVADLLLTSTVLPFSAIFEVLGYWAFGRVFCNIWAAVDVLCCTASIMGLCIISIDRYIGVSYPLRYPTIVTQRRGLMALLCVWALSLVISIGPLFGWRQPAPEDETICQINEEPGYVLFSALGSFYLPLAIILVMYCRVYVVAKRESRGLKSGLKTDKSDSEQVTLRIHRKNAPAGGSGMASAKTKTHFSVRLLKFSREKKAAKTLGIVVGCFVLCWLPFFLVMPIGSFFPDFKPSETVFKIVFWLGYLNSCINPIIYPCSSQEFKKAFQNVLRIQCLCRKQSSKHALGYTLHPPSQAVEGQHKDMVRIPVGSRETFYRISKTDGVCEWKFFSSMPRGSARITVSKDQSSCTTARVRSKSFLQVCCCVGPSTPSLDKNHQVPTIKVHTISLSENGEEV
- experiment-notes: Displacement of [125I]HEAT from human recombinant adrenergic alpha-1A receptor
Give bare numbers, in nM.

Observe how each entry below is paired with its result.
CC(C)C(=O)Nc1cccc(C2CCN(Cc3ccc(Oc4ccc(F)c(F)c4)cc3)CC2)c1	200
Cc1ccc(NC(=O)C(C)C)cc1C1CCN(Cc2ccc(Oc3ccc(F)c(F)c3)cc2)CC1	180

The record that follows has no Ki shown yet.
Inquiry: Query Ki for "O=C(CCCN1CCC(O)(c2ccc(Cl)cc2)CC1)c1ccc(Cl)cc1"
Reply text: 150

====

So I've got a bunch of compounds here, and I need their IC50 values.
- system-tested: Melanin-concentrating hormone receptor 1 (Rattus norvegicus, UniProt P97639)
- experiment-notes: Antagonist activity at rat MCH1 receptor expressed in HEK293 cells by FLIPR calcium mobility assay

COc1ccc(Oc2ccc(CN3CCC(c4cccc(NC(=O)C(C)C)c4)CC3)cc2)cc1	0.72 µM
CC(C)C(=O)Nc1cccc(C2CCN(Cc3cccc(Oc4cc(Cl)cc(Cl)c4)c3)CC2)c1	1.4 µM
CC(C)C(=O)Nc1cccc(C2CCN(Cc3ccc(Oc4ccc(Cl)c(Cl)c4)cc3)CC2)c1	0.71 µM

The record that follows has no IC50 shown yet.
Inquiry: Query IC50 for "CC(=O)Nc1cccc(C2CCN(CCCC(=O)c3ccc(C)c(C)c3)CC2)c1"
Reply text: 1.3 µM
